All values here come from patent US20260242478A1.

target: T1, Anti-CD28 Fab (SEQ ID NOs: 696, 697); test: phage ELISA on plate-bound anti-CD28 Fab pre-incubated with CD28 antigen as competitor
T1 construct: In the phage ELISA the Fab was biotinylated and captured on neutravidin coated plates
T1 sequence (VH, as listed by the source, chain 1 of 2): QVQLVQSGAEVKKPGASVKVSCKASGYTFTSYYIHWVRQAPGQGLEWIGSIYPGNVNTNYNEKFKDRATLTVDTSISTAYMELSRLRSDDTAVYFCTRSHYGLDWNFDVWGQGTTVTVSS
T1 sequence (VL, as listed by the source, chain 2 of 2): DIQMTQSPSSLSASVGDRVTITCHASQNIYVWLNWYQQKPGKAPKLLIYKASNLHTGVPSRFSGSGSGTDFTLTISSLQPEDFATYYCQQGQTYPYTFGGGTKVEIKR
# Lookup of reported Anti-CD28 Fab signal in the presence of CD28 (phage binding ELISA) keyed by entry
Lab note: write the figure by itself, no unit.

Look over these answered cases.
# BINDER, OBSERVED_RESULT
records = [
    ("LCAAGAHYPWPQCL [Phage-1384 peptide (SEQ ID NO: 1680)]", 0.07),
    ("TCAAGAAYPWPLCF [Phage-1377 peptide (SEQ ID NO: 1673)]", 0.11),
]

Task item: Give the measured Anti-CD28 Fab signal in the presence of CD28 (phage binding ELISA) of MCSAGANWPWPLCF [Phage-1379 peptide (SEQ ID NO: 1675)] .
Reply: 0.07

Task item: Give the measured Anti-CD28 Fab signal in the presence of CD28 (phage binding ELISA) of NCSAGATYPWPLCL [Phage-1381 peptide (SEQ ID NO: 1677)] .
Reply: 0.07
